Biological target: Fuc(a1-2)Gal(b1-4)GlcNAc(b1-3)Gal(b1-4)GlcNAc
Test: glycan array binding signal (z-score within array); higher = stronger binding
Conditions: glycan notation: IUPAC condensed, linker removed
The sample as a whole holds a higher share of the strongest signals than the screen did.
readoutLabel: glycan array binding signal (z-score)

binder="Gal 2 (Homo sapiens), P05162 (protein) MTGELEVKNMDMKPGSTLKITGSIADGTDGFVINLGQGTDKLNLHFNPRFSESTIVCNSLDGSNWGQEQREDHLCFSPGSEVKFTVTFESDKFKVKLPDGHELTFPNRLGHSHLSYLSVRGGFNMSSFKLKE" valuemeasured=2.16
binder="Ovorubin (Pomacea canaliculata), J7I2T6 (protein) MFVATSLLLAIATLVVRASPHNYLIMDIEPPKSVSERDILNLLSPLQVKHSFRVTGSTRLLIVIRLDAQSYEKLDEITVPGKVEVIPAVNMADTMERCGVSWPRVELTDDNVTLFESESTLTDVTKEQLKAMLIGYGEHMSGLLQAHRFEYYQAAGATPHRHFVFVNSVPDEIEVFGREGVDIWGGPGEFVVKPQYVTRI" valuemeasured=0.006
binder="CTMLA2 (Anopheles gambiae), Q7Q7F8 (protein) MNLMITILIAVITVVRGDLSVPKTVDDILQQNPCLCPCKPFEEKEYFIPISRTSDWFGAVAYCHSVGMELAEVLNEDEARAMGEVIAEEESDSDDEFYWIGANDLGVQGTYRWALAGRPVLYSQWAAGEPNHARGENGQQPAERCVAVAMDKYEWNDFQCTQQKPFICQQFRKH" valuemeasured=-0.253
binder="SLLPI (Mus musculus), Q9D9X8 (protein) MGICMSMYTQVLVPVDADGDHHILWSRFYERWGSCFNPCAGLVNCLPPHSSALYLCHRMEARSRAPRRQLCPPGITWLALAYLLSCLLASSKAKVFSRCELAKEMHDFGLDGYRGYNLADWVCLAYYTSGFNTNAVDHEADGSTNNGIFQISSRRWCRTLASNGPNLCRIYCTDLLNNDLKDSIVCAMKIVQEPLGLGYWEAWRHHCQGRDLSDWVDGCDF" valuemeasured=-0.448
